Reported Plant response rating, Purple nutsedge values are given for each entry in this list.
Tested on: purple nutsedge (Cyperus rotundus)
Experiment: Test E pre-/postemergence/post directed
Format: in vivo
Settings: PREEMERGENCE, Rate 64 g/ha
Text: […] Test chemicals were formulated in a non-phytotoxic solvent mixture which included a surfactant and applied preemergence to the soil surface, postemergence to the plants or as a post directed spray to plants and soil at the base of the target species. Untreated control plants and treated plants were placed in the greenhouse and visually evaluated for injury 13 to 21 days after herbicide application. […]

molecule	Plant response rating, Purple nutsedge
Cc1cnc(-n2ccc(C(F)(F)F)n2)nc1Cc1cccc(OC(F)(F)F)c1 [Compound 42]	30
COc1cnc(-c2ccc(C(F)(F)F)cc2)nc1Cc1cccc(C(F)(F)F)c1 [Compound 23]	0
Cc1cnc(-n2ccc(C(F)(F)F)n2)nc1Cn1ccc(C(F)(F)F)n1 [Compound 52]	30

Okay, next one:
Input: Given Cc1cnc(-c2ccc(C(F)(F)F)cc2)nc1Cn1ccc(C(F)(F)F)n1 [compound 9] , state its recorded Plant response rating, Purple nutsedge.
Output: 0

* * *

Test system: sugar beet (Beta vulgaris)
Assay: Test B pre-/postemergence
Type: in vivo
Settings: Rate 62 g/ha, Preemergence
Threshold check on Sugarbeets plant response rating: at or above 6 gives class 1, strictly below gives class 0.

compound	class
Cc1cnc(-c2ccc(C(F)(F)F)cc2)nc1Cc1cccc(C#N)c1	class 1

Input: Record Cc1cnc(-c2ccc(OC(F)(F)F)cc2)nc1Cc1cccc(C(F)(F)F)c1 ; criterion: Sugarbeets plant response rating no lower than 6. Met?
Output: class 0

* * *

System: blackgrass (Alopecurus myosuroides)
Experiment: Test B pre-/postemergence
Type: in vivo
Conditions: Rate 250 g/ha, Preemergence
// boundary case: Plant response rating, Blackgrass equal to 5 maps to not fulfilled; strictly smaller maps to fulfilled

# example entries with known answers
compound	class
Cc1cnc(-c2ccc(C(F)(F)F)cc2)nc1C(=O)c1cccc(OC(F)(F)F)c1 [Compound 75]	not fulfilled
Cc1cnc(-c2ccc(C(F)(F)F)cc2)nc1Cn1ccc(C#N)n1 [Compound 53]	fulfilled
COc1cnc(-n2ccc(C(F)(F)F)n2)nc1C(=O)c1cccc(C(F)(F)F)c1 [Compound 60]	fulfilled

Input: Below 5 on Plant response rating, Blackgrass? Entry Cc1cnc(-n2cnc(C(F)(F)F)n2)nc1C(=O)c1cccc(C(F)(F)F)c1 [Compound 67]
Output: not fulfilled

Input: Consider next the compound Cc1cnc(-c2ccc(C(F)(F)F)cc2)nc1C(=O)c1cccc(C(F)(F)F)c1 [Compound 73] in the same way.
Output: not fulfilled

Input: Also Cc1cnc(-c2ccc(C(F)(F)F)cc2)nc1Cc1cccc(C(F)(F)F)c1 [Example 1] ?
Output: not fulfilled

Input: Another: Cc1cnc(-c2ccccc2)nc1Cn1ccc(C(F)(F)F)n1 [Compound 7]
Output: fulfilled

Input: Further, for CCc1cnc(-c2ccc(C(F)(F)F)cc2)nc1Cc1cccc(C(F)(F)F)c1 [Compound 22] ?
Output: not fulfilled

* * *

Tested on: blackgrass (Alopecurus myosuroides)
Assay: Test B pre-/postemergence
Format: in vivo
Details: Rate 62 g/ha, Preemergence
// returns Condition not met unless Blackgrass plant response rating is strictly below 2, in which case Condition met

These solved cases illustrate the format of a correct answer.
compound	class
Cc1cnc(-c2ccc(Cl)cc2F)nc1Cc1cccc(C(F)(F)F)c1 [Compound 29]	Condition met
Cc1cnc(-c2ccc(C#N)cc2)nc1Cc1cccc(C(F)(F)F)c1 [Compound 30]	Condition met

Moving on to the next compound.
Input: Does the reported Blackgrass plant response rating of the following compound sit strictly below 2? Cc1cnc(-c2ccc(C(F)(F)F)cc2)nc1Cn1ccc(C(F)(F)F)n1 [compound 9]
Output: Condition not met
